Entries and their measured Activity follow.
subject-of-test: Prothrombin (Homo sapiens) (UniProt P00734)
protocol-summary: Inhibition of thrombin assessed as residual activity at 100 uM after 10 min
Field format: number, assumed %, no unit text.

Here's what some known entries look like.
In [3]: df
Out[3]:
                                   compound  outcome_measure  reading
0  O=C(OCc1cc(Cl)ccc1O)c1cc2cc(CCl)ccc2oc1=O         Activity      101
1  O=C(Nc1cc(Cl)ccc1O)c1cc2cc(CCl)ccc2oc1=O         Activity      110
2  CCOC(=O)COc1ccc(Cl)cc1COC(=O)c1cc2cc(CCl)ccc2oc1=O         Activity       95

Field request: Activity | item: `O=C(Nc1cc(Cl)ccc1Cl)c1cc2cc(CCl)ccc2oc1=O` 91

Subsequent entry: `O=C(Oc1cccc(Cl)c1)c1cc2cc(Oc3ccccc3)ccc2oc1=O` 90

Subsequent entry: `O=C(OCc1cc(Cl)ccc1Cl)c1cc2cc(CCl)ccc2oc1=O` 103

Subsequent entry: `O=C(Oc1cc(Cl)ccc1Cl)c1cc2cc(Oc3ccccc3)ccc2oc1=O` 94

Subsequent entry: `Nc1ccc(Cl)cc1OC(=O)c1cc2cc(CCl)ccc2oc1=O` 60

Data origin: ChEMBL document CHEMBL1145444
